Tested on: Kornkäfer (sitophilus granarius L)
Assay overview: whole plant or invertebrate
Assay type: in vivo
Condition description: amine 1 mg/ml + Talcord 0,01 mg/ml
Measure name: Synergistischer Faktor bei Talcord

CCCCCC(CCCCC)N1CCCC1 : 6,06
O=C1CCCCC1CN1CCCCC1 (stereo not drawn) : 1,65
OCCC(O)N1CCCC1 (stereo not drawn) : 8,12

Name the reported Synergistischer Faktor bei Talcord value associated with the compound C(=Cc1ccccc1)CN1CCCC1
3,17

Name the reported Synergistischer Faktor bei Talcord value associated with the compound O=[N+]([O-])c1ccc(CN2CCCCC2)cc1
1,77

Name the reported Synergistischer Faktor bei Talcord value associated with the compound C(=Cc1ccccc1)CN1CCOCC1
4,54

Name the reported Synergistischer Faktor bei Talcord value associated with the compound CC(C)=CCCC(C)=CCCC(C)=CCN1CCCCC1
4,25

Name the reported Synergistischer Faktor bei Talcord value associated with the compound CCOC(=O)C(CC)N1CCCCC1 (stereo not drawn)
5,36

Name the reported Synergistischer Faktor bei Talcord value associated with the compound CCOC(=O)CC(C(=O)OCC)N1CCCCC1 (stereo not drawn)
2,47

Name the reported Synergistischer Faktor bei Talcord value associated with the compound c1ccc(CCN2CCOCC2)cc1
7,55

Name the reported Synergistischer Faktor bei Talcord value associated with the compound CCCCCCCCCCN1CCOCC1
8,37

Name the reported Synergistischer Faktor bei Talcord value associated with the compound C1CCC(N2CCCC2)CC1
1,72

Name the reported Synergistischer Faktor bei Talcord value associated with the compound CCCCCN1CCCC1
10,3

Name the reported Synergistischer Faktor bei Talcord value associated with the compound C=CCN1CCCCC1
1,36

Name the reported Synergistischer Faktor bei Talcord value associated with the compound Clc1ccc(CN2CCCC2)cc1
2,35

Name the reported Synergistischer Faktor bei Talcord value associated with the compound C=CC(C)(CCC=C(C)CCC=C(C)C)N1CCCC1 (stereo not drawn)
3,59

Name the reported Synergistischer Faktor bei Talcord value associated with the compound c1ccc(OCCCN2CCCCC2)cc1
3,01

Name the reported Synergistischer Faktor bei Talcord value associated with the compound c1ccc(C(c2ccccc2)N2CCOCC2)cc1
4,12

// data source = patent EP0029617A1
